Target: A3G-CTD2* (catalytically inactive), MST construct (human, UniProt Q9HC16 191-384, E259A)
Sequence (Q9HC16 191-384 E259A): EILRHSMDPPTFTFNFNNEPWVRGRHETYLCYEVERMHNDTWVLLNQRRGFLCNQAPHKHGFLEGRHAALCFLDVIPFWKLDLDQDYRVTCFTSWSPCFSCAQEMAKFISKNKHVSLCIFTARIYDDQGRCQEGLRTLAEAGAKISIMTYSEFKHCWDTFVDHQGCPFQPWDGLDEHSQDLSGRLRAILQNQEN
Assay: MST; 23 C; MST: 20 mM Bis-Tris pH 6.5, 100 mM NaCl, 1 mM DTT, 0.002% Tween 20, 50 nM protein, RED-tris-NTA dye, 23 C; NMR inhibition: 50 mM NaPO4 pH 6.5, 100 mM NaCl, 0.002% Tween 20, 1 mM DTT, 10 µM ZnCl2, 25 C
Conditions: protein: recombinant; tags: His (pET-28a); single strand
readout name: pKd
Numbers only, as −log10 of the molar value.

Which pKd reading was recorded for the binder AATCCCAAA (ssDNA) [5'-AATCCCAAA (substrate)] ?
5.24
